- measurement target: Drg1 (Saccharomyces cerevisiae, UniProt P32794, K292A)
- Construct: full-length type II AAA-ATPase, N-terminal GST-tag with PreScission site (plasmids derived from pAZ7), expressed in yeast from CUP1 promoter; Walker A mutants KA1 (K292A) and KA2 (K563A); hexamer in presence of nucleotide
- Sequence (P32794 whole entry K292A): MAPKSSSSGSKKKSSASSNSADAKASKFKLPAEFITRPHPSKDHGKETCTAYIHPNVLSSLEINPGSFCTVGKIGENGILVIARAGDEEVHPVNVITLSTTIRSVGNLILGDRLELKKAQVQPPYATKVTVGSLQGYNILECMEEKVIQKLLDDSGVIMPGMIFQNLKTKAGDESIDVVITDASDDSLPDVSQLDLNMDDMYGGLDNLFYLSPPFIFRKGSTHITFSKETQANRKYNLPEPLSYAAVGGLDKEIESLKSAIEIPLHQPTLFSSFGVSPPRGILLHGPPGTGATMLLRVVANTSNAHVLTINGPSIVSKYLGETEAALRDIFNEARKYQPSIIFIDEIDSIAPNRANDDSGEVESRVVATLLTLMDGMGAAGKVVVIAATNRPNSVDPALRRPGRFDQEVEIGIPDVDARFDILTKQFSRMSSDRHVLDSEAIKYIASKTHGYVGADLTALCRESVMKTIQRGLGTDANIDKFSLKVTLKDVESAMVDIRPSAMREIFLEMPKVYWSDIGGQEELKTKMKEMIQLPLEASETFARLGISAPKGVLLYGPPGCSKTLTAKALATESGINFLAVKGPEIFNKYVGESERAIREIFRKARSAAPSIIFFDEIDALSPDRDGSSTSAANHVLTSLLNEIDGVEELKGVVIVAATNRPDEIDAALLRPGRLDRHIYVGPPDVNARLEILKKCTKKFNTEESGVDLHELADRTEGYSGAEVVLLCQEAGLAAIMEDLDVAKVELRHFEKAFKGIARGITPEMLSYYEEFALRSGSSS
- experiment description: differential scanning fluorimetry
- protocol conditions: read-out: Kd(ATP)
pKd: −log10 of the molar value.
readout type: pKd

>>> print(df.to_string())
                                        mol  result
0  Nc1ncnc2c1ncn2[C@@H]1O[C@H](COP(=O)(O)OP(=O)(O)OP(=O)(O)O)[C@@H](O)[C@H]1O   ~4.10

###

- measurement target: Drg1 (Saccharomyces cerevisiae, UniProt P32794, K563A)
- Construct: gene AFG2; full-length type II AAA-ATPase, N-terminal GST-tag with PreScission site (plasmids derived from pAZ7), expressed in yeast from CUP1 promoter; Walker A mutants KA1 (K292A) and KA2 (K563A); hexamer in presence of nucleotide
- Sequence (P32794 whole entry K563A): as the sequence (P32794 whole entry K292A) above, with A292K, K563A counted along it
- experiment description: differential scanning fluorimetry
- Format: binding
- protocol conditions: read-out: Kd(ATP)
pKd: −log10 of the molar value.
readout type: pKd

In [3]: df
Out[3]:
                                        mol                        measurement_target  result
0  Nc1ncnc2c1ncn2[C@@H]1O[C@H](COP(=O)(O)OP(=O)(O)OP(=O)(O)O)[C@@H](O)[C@H]1O  Drg1 (Saccharomyces cerevisiae, UniProt P32794, K563A)   ~4.70

Origin of measurements: paper PMC5356007
